Could you please report measured MIC ATB alone for the items listed next?
Test system: SPN 49619
assay-summary: MIC, broth microdilution (CLSI), substance alone or ATB combined with compound at 4 or 8 μg/mL
Type: cell-based, S. pneumoniae
experimental-setup: SPN 49619; antibiotic alone
Note: unit µg/mL is implicit; provide only the numeric part.

// O=C(N[C@H](CO)[C@H](O)c1ccc([N+](=O)[O-])cc1)C(Cl)Cl [CM] : MIC ATB alone value = 4

For this compound ( CO[C@H]1/C=C/O[C@@]2(C)Oc3c(C)c(O)c4c(O)c(c(/C=N/N5CCN(C)CC5)c(O)c4c3C2=O)NC(=O)/C(C)=C\C=C\[C@H](C)[C@H](O)[C@@H](C)[C@@H](O)[C@@H](C)[C@H](OC(C)=O)[C@@H]1C [RIF] ), measured MIC ATB alone is 0.031

Form field MIC ATB alone, entry CN(C)c1cc(NC(=O)CNC(C)(C)C)c(O)c2c1C[C@H]1C[C@H]3[C@H](N(C)C)C(O)=C(C(N)=O)C(=O)[C@@]3(O)C(O)=C1C2=O [TGC] : 0.125

In plain terms, C[C@@H](O)[C@H]1C(=O)N2C(C(=O)O)=C(SCCN=CN)C[C@H]12 [IMI] has a documented MIC ATB alone of 0.063

Noted for CN[C@H](CC(C)C)C(=O)N[C@H]1C(=O)N[C@@H](CC(N)=O)C(=O)N[C@H]2C(=O)N[C@H]3C(=O)N[C@H](C(=O)N[C@H](C(=O)O)c4cc(O)cc(O)c4-c4cc3ccc4O)[C@H](O)c3ccc(c(Cl)c3)Oc3cc2cc(c3O[C@@H]2O[C@H](CO)[C@@H](O)[C@H](O)[C@H]2O[C@H]2C[C@](C)(N)[C@H](O)[C@H](C)O2)Oc2ccc(cc2Cl)[C@H]1O [VAN] : its MIC ATB alone reads 0.25

* * *

Test system: SPN 49619
assay-summary: MIC, broth microdilution (CLSI), substance alone or ATB combined with compound at 4 or 8 μg/mL
Format: cell-based, S. pneumoniae
experimental-setup: MIC of DAP; compound @8 μg/ml; SPN 49619
assay-endpoint: MIC ATB combined with Example compound (µg/mL)
Answer format: numeric, µg/mL implied, no suffix.

GET /value?item= O=C1N2CC(n3cccn3)=CC(C2)N1OS(=O)(=O)[O-].[Na+] (stereo not drawn) [Example 11] &field=MIC ATB combined with Example compound returns 0.125

MIC ATB combined with Example compound reported for this compound O=C1N2CC(c3ncco3)=CC(C2)N1OC(F)(F)C(=O)O (stereo not drawn) [Example 7] : 0.125

Looking up O=C1N2CC(n3cccn3)=CC(C2)N1OC(F)(F)C(=O)[O-].[Li+] (stereo not drawn) [Example 13] , I found its MIC ATB combined with Example compound recorded as 0.5

The recorded MIC ATB combined with Example compound for entry O=C1N2CC(n3ccnn3)=CC(C2)N1OS(=O)(=O)[O-].[Na+] (stereo not drawn) [Example 12] equals 0.031

Entry NC[C@H]1C=C(c2cnco2)[C@@H]2CN1C(=O)N2OS(=O)(=O)[O-].O=C(O)C(F)(F)F.[Na+] (relative stereo) [Example 1] , MIC ATB combined with Example compound reported as 0.125

* * *

System: KPN 6299
assay-summary: MIC, broth microdilution (CLSI), substance alone or ATB combined with compound at 4 or 8 μg/mL
Assay type: cell-based, K. pneumoniae
experimental-setup: with Example 7 at 8 μg/ml
assay-endpoint: MIC ATB combined with Example 7 @8 μgml (µg/mL)
# output: bare number, implied unit µg/mL

The reported MIC ATB combined with Example 7 @8 μgml of the compound CO/N=C(\C(=O)N[C@@H]1C(=O)N2C(C(=O)O)=C(COC(N)=O)CS[C@H]12)c1ccco1 [FUR, Cefuroxime, reference compound] was 2

Entry "CN(C)c1cc(NC(=O)CNC(C)(C)C)c(O)c2c1C[C@H]1C[C@H]3[C@H](N(C)C)C(O)=C(C(N)=O)C(=O)[C@@]3(O)C(O)=C1C2=O" , MIC ATB combined with Example 7 @8 μgml reported as 1

Summary for this compound, C=CC1=C(C(=O)O)N2C(=O)[C@@H](NC(=O)/C(=N\OCC(=O)O)c3csc(N)n3)[C@H]2SC1 [FIX, Cefixime, reference compound] : MIC ATB combined with Example 7 @8 μgml is 0.063

Reported MIC ATB combined with Example 7 @8 μgml for COCC1=C(C(=O)O)N2C(=O)[C@@H](NC(=O)/C(=N\OC)c3csc(N)n3)[C@H]2SC1 [POD, Cefpodoxime, reference compound] was 0.25

Quick note, MIC ATB combined with Example 7 @8 μgml for "C[C@@H](O)[C@H]1C(=O)N2C(C(=O)O)=C(SCCN=CN)C[C@H]12" landed at 4

MIC ATB combined with Example 7 @8 μgml reading for "CO/N=C(\C(=O)N[C@@H]1C(=O)N2C(C(=O)[O-])=C(C[n+]3cccc4c3CCC4)CS[C@H]12)c1csc(N)n1" : 0.063

Just so you know, measured MIC ATB combined with Example 7 @8 μgml for NCC[C@H](O)C(=O)N[C@@H]1C[C@H](N)[C@@H](O[C@H]2O[C@H](CN)[C@@H](O)[C@H](O)[C@H]2O)[C@H](O)[C@H]1O[C@H]1O[C@H](CO)[C@@H](O)[C@H](N)[C@H]1O [AN, Amikacin, reference compound] came out at 2

Recorded MIC ATB combined with Example 7 @8 μgml (compound CC1(C)S[C@@H]2[C@H](NC(=O)[C@H](N)c3ccc(O)cc3)C(=O)N2[C@H]1C(=O)O [AMX, Amoxicillin, reference compound] ): 0.5

* * *

System: ABA UFR154
assay-summary: MIC, broth microdilution (CLSI), substance alone or ATB combined with compound at 4 or 8 μg/mL
Assay type: cell-based, A. baumannii
experimental-setup: Acinetobacter baumannii, substance alone, read-out: MIC
Assignment: determine reported MIC for the given compounds.

MIC measured on NC[C@H]1C=C(c2cnco2)[C@@H]2CN1C(=O)N2OS(=O)(=O)[O-].O=C(O)C(F)(F)F.[Na+] (relative stereo) [Example 1] = > 32 µg/mL

MIC reported for this compound NCCON=C1C[C@@H](C(N)=O)N2C[C@@H]1N(OS(=O)(=O)[O-])C2=O.[Na+] [Example 2] : > 32 µg/mL

// MIC value for O=C1N2CC(n3cccn3)=C[C@H](C2)N1OS(=O)(=O)[O-].[Na+] [Example 15] : > 32 µg/mL

// MIC lookup, compound = O=C1N2CC(n3cccn3)=CC(C2)N1OS(=O)(=O)[O-].[Na+] (stereo not drawn) [Example 11] , result: > 32 µg/mL

Just so you know, measured MIC for O=C1N2CC(c3ncco3)=C[C@H](C2)N1OS(=O)(=O)[O-].[Na+] [Example 9] came out at > 32 µg/mL

Value of measured MIC for the entry NCCCn1c2c(sc1=O)C1CN(C2)C(=O)N1OS(=O)(=O)O (stereo not drawn) [Example 10] : > 32 µg/mL

* * *

Tested on: PAE UFR90
assay-summary: MIC, broth microdilution (CLSI), substance alone or ATB combined with compound at 4 or 8 μg/mL
Assay type: cell-based, P. aeruginosa
experimental-setup: ATB FOS; PAE UFR90; Example @8 μg/ml
assay-endpoint: MIC ATB combined with Example

Here O=C1N2CC(n3cccn3)=CC(C2)N1OC(F)(F)C(=O)[O-].[Li+] (centres unmarked) was tested on PAE UFR90, and its MIC ATB combined with Example came to 8 µg/mL

Note to self: MIC ATB combined with Example of NCCCn1c2c(sc1=O)C1CN(C2)C(=O)N1OS(=O)(=O)O (centres unmarked) with PAE UFR90 was <0.125 µg/mL

Reported MIC ATB combined with Example (PAE UFR90) for entry O=C1N2CC(n3cncn3)=CC(C2)N1OS(=O)(=O)[O-].[Na+] (centres unmarked) is 8 µg/mL

Item: O=C1N2CC(n3ccnn3)=CC(C2)N1OS(=O)(=O)[O-].[Na+] (centres unmarked) | System: PAE UFR90 | MIC ATB combined with Example: 8 µg/mL

Item: O=C1N2CC(n3cccn3)=CC(C2)N1OS(=O)(=O)[O-].[Na+] (centres unmarked) | System: PAE UFR90 | MIC ATB combined with Example: 8 µg/mL

* * *

Provide the recorded MIC ATB combined with Example for the entries that follow.
Test system: KPN UFR42
assay-summary: MIC, broth microdilution (CLSI), substance alone or ATB combined with compound at 4 or 8 μg/mL
Assay type: cell-based, K. pneumoniae
experimental-setup: ATB ATM; KPN UFR42; Example @8 μg/ml
Express the result in µg/mL but write the number alone.

The recorded MIC ATB combined with Example for entry O=C1N2CC(n3cccn3)=CC(C2)N1OC(F)(F)C(=O)[O-].[Li+] (centres unmarked) equals 0.125

Value of MIC ATB combined with Example reported for the molecule NCCCn1c2c(sc1=O)C1CN(C2)C(=O)N1OS(=O)(=O)O (centres unmarked) is 0.063
